# IC50 annotations
Test system: SUDHL5
EXPERIMENT: Induction of cytotoxicity (CellTiter-Glo, 5 h), SUDHL5
CONDITIONS USED: read-out: Cytotox SUDHL5 [M] (median); SUDHL5 cells, cytotoxicity induction, CellTiter-Glo, 5 h incubation, median
MEASURED METRIC: IC50

{"columns": ["COMPOUND", "OBSERVED MEASUREMENT"],
 "data": [
  ["CCc1nn(C)c2c1-c1c(C)ccc3c(C(C)CCOc4cccc5ccccc45)c(C(=O)O)n(c13)CCCCOC2 (single isomer, unassigned) [Example 272]", "> 3.3e-05 M"],
  ["Cc1ccc2c(CCCOc3cccc4ccccc34)c(C(=O)O)n3c2c1-c1c(C)nn(C)c1COCCC3 (single isomer, unassigned; enantiomer 1) [Example 025]", "2.98e-06 M"],
  ["Cn1nc(COc2ccc(S(C)(=O)=O)cc2)c2c1COCCCCn1c(C(=O)O)c(CCCOc3cccc4ccccc34)c3cccc-2c31 (single isomer, unassigned) [Example 1-55]", "> 3.3e-05 M"],
  ["CN1CCCn2c(C(=O)O)c(CCCOc3cccc4ccccc34)c3cccc(c32)-c2c(COc3ccc(N4CCOCC4)cc3)nn(C)c2C1 (single isomer, unassigned) [Example 1-89]", "1.39e-05 M"],
  ["CCc1nn(C)c2c1-c1c(C)ccc3c(C(C)CCOc4cccc5ccccc45)c(C(=O)O)n(c13)CCCCOC2 (single isomer, unassigned) [Example 274]", "> 3.3e-05 M"],
  ["Cc1ccc2c(C(C)CCOc3cccc4ccccc34)c(C(=O)O)n3c2c1-c1c(C)nn(C)c1COCCCC3 (single isomer, unassigned) [Example 260]", "6.3e-06 M"],
  ["Cc1c2c(nn1CCN1CCOCC1)CN(C)CCCn1c(C(=O)O)c(CCCOc3cccc4ccccc34)c3cccc-2c31 (single isomer, unassigned; enantiomer 1) [Example 060]", "4.3e-06 M"],
  ["CC(=O)N1CCN(c2ccc(OCc3nn(C)c4c3-c3cccc5c(CCCOc6cccc7ccccc67)c(C(=O)O)n(c35)CCCCOC4)cc2)CC1 (single isomer, unassigned; enantiomer 1) [Example 1-25]", "2.68e-06 M"],
  ["CCc1nn(C)c2c1-c1c(C)ccc3c(C(C)CCOc4cccc5ccccc45)c(C(=O)O)n(c13)CCCCOC2 (single isomer, unassigned) [Example 273]", "4.58e-06 M"],
  ["Cn1nc2c(c1OC(F)F)-c1cccc3c(CCCOc4cccc5ccccc45)c(C(=O)O)n(c13)CCCCOC2 (single isomer, unassigned) [Example 235]", "> 3.3e-05 M"],
  ["CCc1nn(CCN2CCOCC2)c2c1-c1cccc3c(CCCOc4cccc5ccccc45)c(C(=O)O)n(c13)CCCCOC2 (single isomer, unassigned; enantiomer 2) [Example 200]", "2.41e-05 M"]
]}
